- assay-target: Melanin-concentrating hormone receptor 1 (Homo sapiens)
- Sequence (Q99705 whole entry): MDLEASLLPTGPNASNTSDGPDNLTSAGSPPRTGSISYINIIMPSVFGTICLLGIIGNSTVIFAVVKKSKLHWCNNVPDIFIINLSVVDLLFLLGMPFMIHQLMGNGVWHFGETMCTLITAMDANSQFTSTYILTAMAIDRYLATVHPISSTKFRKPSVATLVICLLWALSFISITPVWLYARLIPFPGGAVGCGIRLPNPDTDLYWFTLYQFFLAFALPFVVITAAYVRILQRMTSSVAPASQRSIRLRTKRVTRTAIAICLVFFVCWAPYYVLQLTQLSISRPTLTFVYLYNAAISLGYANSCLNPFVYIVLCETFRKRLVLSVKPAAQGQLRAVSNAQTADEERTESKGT
- procedure-text: Stimulation of IP3-coupled mobilization of calcium in HEK293 cells expressing MCH-R1
The reader will find reported EC50 values listed item by item below.
Express it in nM; write the number only.

CCCc1cc(OC)c2cc(NC(=O)/C=C/c3ccc(C(F)(F)F)cc3)ccc2n1 | 360
CCc1cc(N)c2cc(NC(=O)/C=C/c3ccc(C(F)(F)F)cc3)ccc2n1 | 110
CCCc1cc(N2CCC2)c2cc(NC(=O)/C=C/c3ccc(C(F)(F)F)cc3)ccc2n1 | 2500

Next up:
Incoming: Which value of EC50 has been reported for CCCc1cc(N)c2cc(NC(=O)c3ccc(-c4ccc(Cl)cc4)cc3)ccc2n1 in the records?
Outgoing: 75
